# assay.system: cloned human 5-HT6 receptor (Homo sapiens)
# Construct: host or cells: HeLa cells, G-418 selection, membrane preparation
# Sequence (P50406 whole entry): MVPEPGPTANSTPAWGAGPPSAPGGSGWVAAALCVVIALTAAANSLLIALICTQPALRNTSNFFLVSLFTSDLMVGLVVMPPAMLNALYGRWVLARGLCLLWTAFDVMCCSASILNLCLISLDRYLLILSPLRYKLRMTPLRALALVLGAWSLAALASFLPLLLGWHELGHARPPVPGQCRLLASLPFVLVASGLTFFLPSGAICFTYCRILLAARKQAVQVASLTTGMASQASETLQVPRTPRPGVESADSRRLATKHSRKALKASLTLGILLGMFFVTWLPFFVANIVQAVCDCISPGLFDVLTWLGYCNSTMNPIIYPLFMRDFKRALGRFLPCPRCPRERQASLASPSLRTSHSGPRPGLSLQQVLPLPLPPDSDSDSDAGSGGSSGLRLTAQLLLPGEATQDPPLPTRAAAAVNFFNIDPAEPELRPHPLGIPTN
# test.details: 5-HT6 Receptor Binding Assay ([3H]-LSD radioligand, SPA)
# assay.conditions: read-out: 5HT6 % inh @ 1 uM
property.name: inhibition at 1 µM (%)

- compound: "Cc1cccc([C@H]2CCCCN2C(=O)c2cccc(N3CCCN(C)CC3)n2)c1"
  experimental.value: 93.6
- compound: "COc1ccccc1CN(C)C(=O)c1cccc(N2CCN(C)CC2)n1"
  experimental.value: 89.9
- compound: "Cc1ccc(O[C@H]2CCCN(C(=O)c3cccc(N4CCCNCC4)n3)C2)cc1"
  experimental.value: 94.7
- compound: "Cc1ccccc1C1CCCCN1C(=O)c1cccc(N2CCCNCC2)n1 (stereo not drawn)"
  experimental.value: 84.6
- compound: "CN1CCN(c2cccc(C(=O)N3CCCC(c4ccccc4F)CC3)n2)CC1 (stereo not drawn)"
  experimental.value: 98.5
- compound: "CN1CCN(c2cccc(C(=O)N3CC(c4cccc(F)c4)C3)n2)CC1"
  experimental.value: 78
- compound: "CN1CCN(c2cccc(C(=O)N3CCCC[C@@H]3c3ccccc3F)n2)CC1"
  experimental.value: 94
- compound: "Cc1ccc(CN(C)C(=O)c2cccc(N3CCN(C)CC3)n2)cc1"
  experimental.value: 89.4
- compound: "CN1CCN(c2cccc(C(=O)N3CCC(F)(c4ccccc4F)CC3)n2)CC1"
  experimental.value: 97.2
- compound: "CN1CCN(c2cccc(S(=O)(=O)N3CCC(c4ccccc4F)CC3)n2)CC1"
  experimental.value: 102
- compound: "Cc1ccccc1C1CCCCN1C(=O)c1cccc(N2CCNCC2)n1 (stereo not drawn)"
  experimental.value: 78.6
- compound: "CN1CCN(c2cccc(C(=O)N(C)Cc3ccccc3Cl)n2)CC1"
  experimental.value: 89.6
- compound: "Cc1ccccc1[C@@H](C)N(C)C(=O)c1cccc(N2CCN(C)CC2)n1"
  experimental.value: 86.7
- compound: "CN1CCC(c2cccc(C(=O)N3CCC(Oc4ccccc4F)CC3)n2)C1 (stereo not drawn)"
  experimental.value: 97.8
- compound: "Cc1ccccc1[C@H]1CCCCN1C(=O)c1cccc(N2CCN(C)CC2)n1"
  experimental.value: 70
- compound: "Cc1cccc(O[C@H]2CCCN(C(=O)c3cccc(N4CCCNCC4)n3)C2)c1"
  experimental.value: 99.7
- compound: "CN1CCCN(c2cccc(C(=O)N3CCC[C@H](Oc4cccc(F)c4)C3)n2)CC1"
  experimental.value: 99.1
- compound: "Cc1cccc(O[C@H]2CCCN(C(=O)c3cccc(N4CCCN(C)CC4)n3)C2)c1"
  experimental.value: 99.5
